B1: TRAF3IP2 (parent)
chain: APWNYHYHCPGSPDHQVPYGHDYP

Variants of: B1
Assay: protein stability index of a GFP-peptide fusion (GPS, HEK-293T) (PSI 1-6); higher = more stable;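 also: lentivirally expressed fusions sorted by FACS into six bins by GFP to DsRed ratio, PSI derived from sequencing read proportions per bin multiplied by bin number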
Settings: c terminus: a fixed tail appended

| alteration | protein stability index |
| --- | --- |
| Y7R | 3.09 |
| Y5Q | 2.94 |
| A1E | 2.91 |
| N4G | 2 |
| W3L | 3.03 |
| P10Q | 2.04 |
